# ASSAYED_TARGET: T1, DGI-2 polypeptide (UniProt Q15004 1-111, limits assumed)
# T1 construct: Soluble recombinant protein coated at 500 ng/well; vector tag of pIVEX2.3-MCS not described for this construct; also called KIAA0101
# T1 sequence (looked up): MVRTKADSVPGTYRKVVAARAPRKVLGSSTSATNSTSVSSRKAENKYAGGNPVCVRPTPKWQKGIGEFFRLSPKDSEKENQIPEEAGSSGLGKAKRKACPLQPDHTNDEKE
# EXPERIMENTAL_PROTOCOL: phage ELISA
The label depends only on DGI-2/LDH: Yes if it is at least 5 ratio, No if it is smaller.

stdin: Is it the case that VCGQRVARMQLNKTIRKLDSAAAGAPVPYPDPLEPRP [DGI-2-20F-PP-A6] has DGI-2/LDH reaching or exceeding 5 ratio?
stdout: No

stdin: Also RDTMCGSVSWGIPGCEYSGMAAAGAPVPYPDPLEPRP [DGI-2-20R-4-G122] , if possible.
stdout: Yes

stdin: Also GGGRESWGGGWFMGWGSGAGAAAGAPVPYPDPLEPRP [DGI-2-20R-3-A6] , if possible.
stdout: Yes

stdin: Also RDHRYVGWGRATFRHDQSVWAAAGAPVPYPDPLEPRP [DGI-2-20F-PP-H1] , if possible.
stdout: No

stdin: Also REFFNQASRGAWGYMFREWVEGAAAGAPVPYPDPLEPRP [DGI-2-40F-3-A1] , if possible.
stdout: Yes

stdin: Also VHSQGRMWAIPGLRGGTGASAAAGAPVPYPDPLEPRP [DGI-2-20R-3-D7] , if possible.
stdout: Yes

stdin: Also LPQSRWLSEAWASWVDGVVDAAAGAPVPYPDPLEPRP [DGI-2-20F-4-F9] , if possible.
stdout: Yes

stdin: Also MFQDVACDLWHSVRCLRRDVAAAGAPVPYPDPLEPRP [DGI-2-20R-3-B3] , if possible.
stdout: No

stdin: Also RRGVCEIFTGWCVGQTNERPAAAGAPVPYPDPLEPRP [DGI-2-20R-4-H626] , if possible.
stdout: Yes

stdin: Also VVGYAQGDGLEGGLGSSRDGSAAAGAPVPYPDPLEPRP [DGI-2-20F-PP-D8] , if possible.
stdout: No

stdin: Also CCAWNGVGVGGLGWRVVVGPAAAGAPVPYPDPLEPRP [DGI-2-20F-PP-H4] , if possible.
stdout: No

stdin: Also ERVSKCVGRGSGRSVGQFGGAAAGAPVPYPDPLEPRP [DGI-2-20F-PP-F1] , if possible.
stdout: No

stdin: Also WGCVFRQWASGSGAGCARRHAAAGAPVPYPDPLEPRP [DGI-2-20R-3-D9] , if possible.
stdout: Yes

Values compiled from patent US7056679.
